# System: MOLT-4 leukemia
# PROTOCOL NOTES: NCI-60 one-dose screen, 48 h (100 = growth as untreated, 0 = no growth, -100 = all killed)
# CONDITION CONTEXT: 10 µM unless noted
The panel holds about 83,000 compounds, 20% with a hit somewhere; the sample as a whole holds those more often.
Use 90% as the dividing line for growth, with the line itself on the Condition met side and lower values as Condition not met.

Exam item: decide whether the reported growth for `Cc1cccc(-n2c(C)nc3ccc(NC(=O)NCCCl)cc3c2=O)c1` is at least 90%.
Condition met

Exam item: decide whether the reported growth for `CCSc1nnc(Nc2ccc(C(C)C)cc2)s1` is at least 90%.
Condition not met

Exam item: decide whether the reported growth for `Cc1ccc(S(=O)(=O)NCCCNc2nccc(-c3c(-c4ccccc4)nc4sccn34)n2)cc1` is at least 90%.
Condition not met

Exam item: decide whether the reported growth for `O=C(Nc1ccc(F)cc1)c1cc([N+](=O)[O-])ccc1O` is at least 90%.
Condition not met

Exam item: decide whether the reported growth for `CCCCCCCCCCCCNC(=S)N/N=C/c1ccc(Cl)c(Cl)c1` is at least 90%.
Condition met

Exam item: decide whether the reported growth for `C=C1C(=O)O[C@H]2[C@H]1CC/C(COC(=O)NCc1cc(OC)c(OC)c(OC)c1)=C\CC[C@@]1(C)O[C@@H]21` is at least 90%.
Condition not met

Exam item: decide whether the reported growth for CCC1CCc2nc3sc(C(=O)Nc4cccc(C)c4)c(N)c3cc2C1 (stereo not drawn) is at least 90%.
Condition not met

Exam item: decide whether the reported growth for `CCN(CC)CCSc1c2ccc(Cl)cc2nc2ccc(OC)cc12` is at least 90%.
Condition not met

Exam item: decide whether the reported growth for `Nc1c(C(=O)Nc2cccc(Cl)c2Cl)sc2nc3c(cc12)C(=O)CCC3` is at least 90%.
Condition met

Exam item: decide whether the reported growth for `O=S(=O)(NCCNc1nccc(-c2c(-c3ccccc3)nc3sccn23)n1)c1ccc(O)cc1` is at least 90%.
Condition not met

Exam item: decide whether the reported growth for `Cc1cc(C(=O)CSc2nc3ccccc3c(=O)[nH]2)c(C)n1C` is at least 90%.
Condition met

Exam item: decide whether the reported growth for `COc1ccc(C(=O)N2CCN(C(=O)c3cc(OC)c(OC)c(OC)c3)CC2)cc1OCCCCOc1cc2c(cc1OC)C(=O)N1CCC[C@H]1C=N2` is at least 90%.
Condition met

Exam item: decide whether the reported growth for `COc1cc2nc(N3CCC[C@@H](NC4=CC(=O)c5ccccc5C4=O)C3)nc(N)c2cc1OC` is at least 90%.
Condition not met

Exam item: decide whether the reported growth for N#CC1=C(N)OC2=C(C(=O)CCC2)C1c1ccco1 (stereo not drawn) is at least 90%.
Condition met

Exam item: decide whether the reported growth for `COc1cccc2cc(-c3cc4ccccc4[nH]3)/c(=N/C(=S)Nc3ccccc3)oc12` is at least 90%.
Condition met

Exam item: decide whether the reported growth for CCN1C(=O)N(CC)C2C1NN=c1s/c(=C\c3cccc(F)c3)c(=O)n12 (stereo not drawn) is at least 90%.
Condition not met

Exam item: decide whether the reported growth for `COc1ncc(-c2ccc3ncnc(Nc4cccc(Cl)c4)c3c2)cc1NS(=O)(=O)C1CC1` is at least 90%.
Condition not met

Exam item: decide whether the reported growth for COc1ccc2c(c1)C=CC(C#N)N2C(=O)c1ccccc1 (stereo not drawn) is at least 90%.
Condition not met

Exam item: decide whether the reported growth for `CC1=C(C#N)C(C)(C)C(C#N)=C(C)N1` is at least 90%.
Condition met

----------
# Test system: HT29 colon
# PROTOCOL NOTES: NCI-60 one-dose screen, 48 h
# CONDITION CONTEXT: 10 µM unless noted
The panel holds about 83,000 compounds, 20% with a hit somewhere; the sample as a whole holds those more often. The source made the active and inactive calls. Rule for the calls: active = growth percent below 10; inactive = the rest.
Form entry, call: pick from yes (1) for active, no (0) for inactive

Fill in: this test's call for CC(Br)C(Br)c1cc2c(cc1Br)OCO2 (stereo not drawn) is ___
no (0)

Fill in: this test's call for `O=C(Nc1cccc(Cl)c1)c1cc([N+](=O)[O-])ccc1O` is ___
no (0)

Fill in: this test's call for NC(=O)c1c(NC(=O)c2ccc(OCC3CCCO3)cc2)sc2c1CCCC2 (stereo not drawn) is ___
no (0)

Fill in: this test's call for `CC(C)C[C@H](NC(=O)[C@H](Cc1ccccc1)n1ccc(N2CCCCC2)cc1=O)B(O)O` is ___
yes (1)

Fill in: this test's call for `O=C(CNC(=O)c1cccc2ccccc12)Nc1ccccc1Oc1ccccc1` is ___
yes (1)

Fill in: this test's call for CN=S(=O)(NC(=O)c1ccc(Cl)cc1Cl)c1ccc(Br)s1 (stereo not drawn) is ___
no (0)

Fill in: this test's call for `C[N+](C)(C)c1ccc(CC2c3ccccc3-c3ccccc32)cc1` is ___
no (0)

Fill in: this test's call for `NC(N)=NC(N)=Nc1ccccc1-c1ccccc1` is ___
no (0)

Fill in: this test's call for `O=C(CNc1ccc(Cl)cc1)Nc1ccc(-c2nc3ccccc3s2)cc1` is ___
no (0)

Fill in: this test's call for `O=C(CNC1CCCCC1)Nc1ccc(-c2nc3ccccc3s2)cc1` is ___
no (0)

Fill in: this test's call for `COc1cc(-n2nc(C(=O)Nc3ccc(C(=O)O)cc3)nc2-c2ccccc2)cc(OC)c1OC` is ___
no (0)

Fill in: this test's call for `CCSc1nnc(Nc2ccc(C(C)C)cc2)s1` is ___
no (0)

Fill in: this test's call for `COc1cc(/C=C\c2cc(OC)c(OC)c(OC)c2)cc(N/C=C\C(=O)c2c[nH]c3ccccc23)c1OC` is ___
yes (1)

----------
# Test system: OVCAR-3 ovarian
# PROTOCOL NOTES: NCI-60 one-dose screen, 48 h (100 = growth as untreated, 0 = no growth, -100 = all killed)
# CONDITION CONTEXT: 10 µM unless noted
About 83,000 compounds went through this panel and 20% of them were active in at least one assay; those are over-represented in the sample as a whole.
Binary label based on growth with cut-off 90%: below gives TRUE, not below gives FALSE.

Find out if reported growth for O=[N+]([O-])c1cc(S(=O)(=O)OCC2CO2)ccc1Cl (stereo unspecified) is less than 90%
FALSE

Find out if reported growth for `CC(C)CCN(CCCNc1c2c(nc3ccccc13)CCCC2)CCC(C)C` is less than 90%
FALSE

Find out if reported growth for `Cc1cc(Nc2nc(-c3ccncc3)nc3ccccc23)n[nH]1` is less than 90%
TRUE

Find out if reported growth for `O=C(CCl)NCCNc1nccc(Nc2ccc(S(=O)(=O)Nc3ccccn3)cc2)n1` is less than 90%
TRUE

Find out if reported growth for `C=CCn1c(C)nc2ccc(Nc3nc(Nc4ccc(F)cc4)nc4ccccc34)cc21` is less than 90%
TRUE

Find out if reported growth for `C=C1C(=O)O[C@H]2[C@H]1CC/C(Cn1cc(-c3ccccc3C(F)(F)F)nn1)=C\CC[C@@]1(C)O[C@@H]21` is less than 90%
TRUE

Find out if reported growth for `CCCCCCOc1ccc(C2(Cl)c3ccccc3N(C)c3ccccc32)cc1` is less than 90%
TRUE

Find out if reported growth for `COc1cc(OC)c(C(=O)/C=C/c2ccc(C(F)(F)F)cc2)c(OC)c1` is less than 90%
TRUE

Find out if reported growth for `CC(=O)Oc1cccc(OC(C)=O)c1OC(C)=O` is less than 90%
FALSE

Find out if reported growth for Cc1cc(Cl)ccc1OC(C)C(=O)Nc1nnc(C2CC2)s1 (stereo unspecified) is less than 90%
FALSE

Find out if reported growth for `Cc1ccc(-c2csc3nc(C)c(CCCl)c(=O)n23)cc1` is less than 90%
FALSE

Find out if reported growth for `COc1ccc(N=C2NN=C(c3ccc(F)cc3)CS2)cc1OC` is less than 90%
FALSE

Find out if reported growth for `CCSc1nnc(NC(=O)COc2ccc(Cl)cc2C)s1` is less than 90%
FALSE

Find out if reported growth for CCN1C(=O)N(CC)C2C1NN=c1s/c(=C\c3cccc(F)c3)c(=O)n12 (stereo unspecified) is less than 90%
TRUE

Find out if reported growth for `O=C1CCCCC=C1C[N+](=O)[O-]` is less than 90%
TRUE

----------
# System: LOX IMVI melanoma
# PROTOCOL NOTES: NCI-60 one-dose screen, 48 h
# CONDITION CONTEXT: 10 µM unless noted
This is part of a sample that, as a whole, favours compounds with a hit. Of some 83,000 tested, about 20% had one in any assay. Active and inactive are the calls of the source. How the source made its calls: active means growth percent below 10; inactive means the rest.
Form entry, call: pick from True = active, False = inactive

Fill in: this test's call for `O=C1Nc2cc(Cl)ccc2/C1=C/c1ccc(N2CCOCC2)s1` is ___
False

Fill in: this test's call for `O=S=Nc1ccc([N+](=O)[O-])cc1` is ___
False

Fill in: this test's call for `COc1cc(CCn2nnc3c(NCCCCO)ncnc32)cc(OC)c1` is ___
False

Fill in: this test's call for O=C(COc1ccccc1)N1N=C(c2ccc(Cl)cc2)CC1c1c[nH]c2ccccc12 (stereo not drawn) is ___
False

Fill in: this test's call for `COc1ccc(/C(=N/O)c2cc(OC)c(OC)c(OC)c2)c(OC)c1N` is ___
False

Fill in: this test's call for `Cc1nc2sccn2c1-c1csc(Nc2ccccc2Cl)n1` is ___
False

Fill in: this test's call for CCCC1OC(c2ccc(C(C)C)cc2)OCC1CC (stereo not drawn) is ___
False

Fill in: this test's call for `Cc1sc(N=Nc2ccc(N(C)C)cc2)[n+]([O-])c1C` is ___
False

Fill in: this test's call for `COc1cccc(/C=C2\SC(N3CCN(c4ccccn4)CC3)=NC2=O)c1` is ___
False

Fill in: this test's call for `COC(=O)CCCCN=Cc1c(O)c(O)c(C(C)C)c2cc(C)c(-c3c(C)cc4c(C(C)C)c(O)c(O)c(C=NCCCCC(=O)OC)c4c3O)c(O)c12` is ___
False

Fill in: this test's call for `N#Cc1c(NC(=O)c2ccc([N+](=O)[O-])o2)[n+]([O-])c2cc(F)c(F)cc2[n+]1[O-]` is ___
False

Fill in: this test's call for `O=C(/C=C/CN1CCCCC1)Nc1cc2c(Nc3ccc(F)c(Cl)c3F)ncnc2cc1OCCOC(F)F` is ___
False

Fill in: this test's call for `C=C1C(=O)O[C@H]2[C@H]1CC/C(COC(=O)NCc1ccc(OC)cc1)=C\CC[C@@]1(C)O[C@@H]21` is ___
False

Fill in: this test's call for `CCC(=O)Oc1ccc2c(c1)CC[C@@H]1[C@@H]2CC[C@]2(C)C[C@H](OC(=O)CC)C[C@@H]12` is ___
False

Fill in: this test's call for `Cc1cc(C)c2c(=O)[nH]c(SCC(=O)Nc3cccc(S(=O)(=O)N(C)C)c3)nc2n1` is ___
False

Fill in: this test's call for `COc1cccc2cc(-c3cc4ccccc4[nH]3)/c(=N/C(=S)Nc3ccccc3)oc12` is ___
False

Fill in: this test's call for Cc1cnc(NC(=O)C(Cc2ccccc2)NC(=O)c2ccccc2)s1 (stereo not drawn) is ___
False

Fill in: this test's call for `C=C1C(=O)O[C@H]2[C@H]1CC/C(COC(=O)NCc1cc(OC)c(OC)c(OC)c1)=C\CC[C@@]1(C)O[C@@H]21` is ___
False

Fill in: this test's call for `Cn1c(=O)c2c(nc3n2CCN(CCc2ccc(OCCN4CCOCC4)cc2)C3)n(C)c1=O` is ___
False

Fill in: this test's call for `COc1cc(C(=O)N2CCN(C(=O)c3ccco3)CC2)c(N)cc1OCc1ccccc1` is ___
False

Fill in: this test's call for `O=C(Nc1ccc(I)cc1)c1cc([N+](=O)[O-])ccc1O` is ___
False

Fill in: this test's call for `CCNC(=O)CCCCC(=O)c1c(C)[nH]c(/C=C2\N=C(c3ccc[nH]3)C=C2OC)c1C` is ___
True

Fill in: this test's call for `COc1ccc(C(=O)c2cc(OC)c(OC)c(OC)c2)cc1/C=C/C(=O)c1ccc2c(c1)OCO2` is ___
True
